Provenance of the data: PubChem BioAssay AID1208

# maps each entry to its Potency
System: rat chronic carcinogenicity bioassay, TD50
Experiment: DSSTox (CPDBAS) Carcinogenic Potency Database Summary Rat Bioassay Results
Details: TargetSites_Rat_Female: no positive results; hits give low values

* CC(=O)Nc1ccc(N=Nc2cc(C)ccc2O)cc1 | 380 mg/kg/day
* ClC(Cl)(Cl)C(Cl)(Cl)Cl | 55.4 mg/kg/day
* Clc1ccc(Cl)cc1 | 644 mg/kg/day

Form: item Cc1ccc(C)c(C)c1 ; test system rat chronic carcinogenicity bioassay, TD50; Potency: 4350 mg/kg/day

Form: item Nc1ccc(Cl)c(N)c1 ; test system rat chronic carcinogenicity bioassay, TD50; Potency: 315 mg/kg/day

Form: item CCN(C)N=O ; test system rat chronic carcinogenicity bioassay, TD50; Potency: 0.0503 mg/kg/day

* * *

Test system: rat chronic carcinogenicity bioassay, TD50
Experiment: DSSTox (CPDBAS) Carcinogenic Potency Database Summary Rat Bioassay Results
Settings: TD50_Rat_Note: TD50 is harmonic mean of more than one positive test; TargetSites_Rat_Female: esophagus; kidney; mammary gland; stomach; hits give low values
Reported Endpoint: Potency

Form: item O=[N+]([O-])c1ccc(-c2cnc3ccccn23)o1 ; test system rat chronic carcinogenicity bioassay, TD50; Potency: 13.6 mg/kg/day

* * *

Tested on: rat chronic carcinogenicity bioassay, TD50
Assay: DSSTox (CPDBAS) Carcinogenic Potency Database Summary Rat Bioassay Results
Details: TD50_Rat_Note: TD50 is harmonic mean of more than one positive test; TargetSites_Rat_Female: mesovarium; hits give low values
Reported Endpoint: Potency

Entry CC(C)(C)NCC(O)c1ccc(O)c(CO)c1 (stereo unspecified) , Potency reported as 40 mg/kg/day

* * *

Tested on: rat chronic carcinogenicity bioassay, TD50
Assay: DSSTox (CPDBAS) Carcinogenic Potency Database Summary Rat Bioassay Results
Details: TD50_Rat_Note: positive test results only by intraperitoneal or intravenous injection; no positive results are statistically significan; hits give low values
Reported Endpoint: Potency

Entry CN(N=O)c1ccc(N=O)cc1 , Potency reported as 1.3 mg/kg/day

* * *

System: rat chronic carcinogenicity bioassay, TD50
Assay: DSSTox (CPDBAS) Carcinogenic Potency Database Summary Rat Bioassay Results
Conditions: TD50_Rat_Note: TD50 is harmonic mean of more than one positive test; TargetSites_Rat_Female: liver; hits give low values
Reported Endpoint: Potency

Some compounds with recorded Potency:
* Cc1cc(N=Nc2ccccc2C)ccc1N | 4.04 mg/kg/day
* CCCCOCCOCCOCc1cc2c(cc1CCC)OCO2 | 633 mg/kg/day
* O=NN1CCC(=O)NC1=O | 0.0983 mg/kg/day
* COc1ccc(CN(CCN(C)C)c2ccccn2)cc1 | 280 mg/kg/day
* CC(O)CN(N=O)C(=O)NCCCl (configuration not stated) | 0.873 mg/kg/day
* Cc1ccc(N=Nc2c(O)ccc3ccccc23)c([N+](=O)[O-])c1 | 1170 mg/kg/day

Form: item Oc1ccc2ccccc2c1N=Nc1ccccc1 ; test system rat chronic carcinogenicity bioassay, TD50; Potency: 29.4 mg/kg/day

* * *

# maps each entry to its Potency
Test system: rat chronic carcinogenicity bioassay, TD50
Assay: DSSTox (CPDBAS) Carcinogenic Potency Database Summary Rat Bioassay Results
Conditions: TD50_Rat_Note: TD50 is harmonic mean of more than one positive test; TD50_Rat_mmol was not calculated for this mixture, but Activiity S; TargetSites_Rat_Female: liver; hits give low values
From the text: The Carcinogenic Potency Database (CPDB) is a unique and widely used international resource of the results of over 6500 chronic, long-term animal cancer tests on over 1500 chemical substances. The CPDB provides easy access to the bioassay literature, with qualitative and quantitative analyses of both positive and negative experiments that have been published over the past 50 years in the general literature and by the National Cancer Institute/National Toxicology Program. […]

Some compounds with recorded Potency:
- Clc1cccc(-c2ccc(Cl)c(Cl)c2Cl)c1Cl: 4.8 mg/kg/day
- Clc1ccc(-c2ccc(Cl)c(Cl)c2Cl)c(Cl)c1Cl: 2.81 mg/kg/day

Please look at the following compound next.
Entry Clc1ccc(-c2cccc(Cl)c2Cl)c(Cl)c1 , Potency reported as 11.8 mg/kg/day

* * *

System: rat chronic carcinogenicity bioassay, TD50
Test: DSSTox (CPDBAS) Carcinogenic Potency Database Summary Rat Bioassay Results
Details: TD50_Rat_Note: no positive results; TargetSites_Rat_Female: no positive results
Calls of active or inactive are those of the source.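 Rule for the calls: active = at least one rat sex group has a carcinogenic potency value and tumor site recorded; inconclusive = only rat studies were judged inadequate by the national testing program; inactive = no potency or tumor site, with negative rat experiments.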
Reported Endpoint: outcome

• CC(=O)Nc1cccc2c1-c1ccccc1C2 = inactive
• Clc1cc(Cl)cc(-c2cc(Cl)cc(Cl)c2)c1 = inactive
• FC(Cl)C(F)(F)F (configuration not stated) = inactive
• NNC(N)=S = inactive
• CCCCCCCCCCCCC(=O)COC1=C(O)C(=O)O[C@@H]1[C@@H](O)CO = inactive

Please look at the following molecule next.
Entry NC1=NC(=O)C(c2ccccc2)O1 (configuration not stated) , outcome reported as inactive

* * *

Test system: rat chronic carcinogenicity bioassay, TD50
Assay: DSSTox (CPDBAS) Carcinogenic Potency Database Summary Rat Bioassay Results
Conditions: TD50_Rat_Note: TD50 is harmonic mean of more than one positive test; TargetSites_Rat_Female: stomach; hits give low values
Reported Endpoint: Potency

Some compounds with recorded Potency:
* C/C=C/C=C/C=O | 62.2 mg/kg/day
* NC(=O)N(CCCO)N=O | 0.978 mg/kg/day
* O=[N+]([O-])c1cccc2cccnc12 | 9.82 mg/kg/day

Entry NC(N)=Nc1nc(CSCCNc2nsnc2N)cs1 , Potency reported as 4990 mg/kg/day

Entry c1cc(OCC2CO2)cc(OCC2CO2)c1 (centres undefined) , Potency reported as 3.78 mg/kg/day

Entry Cn1nc(CO)nc1NCCCOc1cccc(CN2CCCCC2)c1 , Potency reported as 479 mg/kg/day

Entry COc1ccc(O)cc1 , Potency reported as 658 mg/kg/day

Entry C=C(C)CCl , Potency reported as 113 mg/kg/day

Entry Cl/C=C/CCl , Potency reported as 94 mg/kg/day

Entry Oc1ccc2c(c1)OCO2 , Potency reported as 1350 mg/kg/day

Entry C=CC(=O)OCC , Potency reported as 119 mg/kg/day

Entry O=C1CCO1 , Potency reported as 1.46 mg/kg/day

Entry NC(=O)CCCCn1ccc(NC(N)=NCC(F)(F)F)n1 , Potency reported as 1170 mg/kg/day

Entry O=C(O)/C=C/c1ccc(O)c(O)c1 , Potency reported as 297 mg/kg/day

Entry CC1(C)COC1=O , Potency reported as 211 mg/kg/day

* * *

# maps each entry to its Potency
Tested on: rat chronic carcinogenicity bioassay, TD50
Assay: DSSTox (CPDBAS) Carcinogenic Potency Database Summary Rat Bioassay Results
Settings: TargetSites_Rat_Female: no positive results; hits give low values

Form: item O=Cc1ccco1 ; test system rat chronic carcinogenicity bioassay, TD50; Potency: 683 mg/kg/day

* * *

Test system: rat chronic carcinogenicity bioassay, TD50
Test: DSSTox (CPDBAS) Carcinogenic Potency Database Summary Rat Bioassay Results
Details: TargetSites_Rat_Female: all tumor bearing animals; hits give low values
Reported Endpoint: Potency

Entry O=[N+]([O-])c1ccc(-c2nc(N3CCOCC3)c3ccccc3n2)s1 , Potency reported as 5.03 mg/kg/day

Entry O=c1[nH]nc(-c2ccc([N+](=O)[O-])o2)o1 , Potency reported as 8.61 mg/kg/day

Entry O=C1NC(c2ccc([N+](=O)[O-])s2)Nc2ccccc21 (centres undefined) , Potency reported as 1.53 mg/kg/day

Entry O=[N+]([O-])c1ccc(-c2nc(NCCO)c3ccccc3n2)s1 , Potency reported as 1.87 mg/kg/day

* * *

System: rat chronic carcinogenicity bioassay, TD50
Assay: DSSTox (CPDBAS) Carcinogenic Potency Database Summary Rat Bioassay Results
Settings: TargetSites_Rat_BothSexes: lung; hits give low values
Reported Endpoint: Potency

Entry CC/C=C(/CC)[N+](=O)[O-] , Potency reported as 8.66 mg/kg/day

* * *

Test system: rat chronic carcinogenicity bioassay, TD50
Assay: DSSTox (CPDBAS) Carcinogenic Potency Database Summary Rat Bioassay Results
Details: TD50_Rat_Note: TD50 is harmonic mean of more than one positive test; TargetSites_Rat_Female: liver; hits give low values
Reported Endpoint: Potency

Some molecules with recorded Potency:
- Brc1cc(Br)c(-c2cc(Br)c(Br)cc2Br)cc1Br: 0.322 mg/kg/day
- CCCCC(CC)COC(=O)c1ccccc1C(=O)OCC(CC)CCCC (stereo not given): 716 mg/kg/day
- C/C=C1/C[C@@H](C)[C@](O)(CO)C(=O)OCC2=CC[N+]3([O-])CC[C@@H](OC1=O)[C@@H]23 (stereo not given in full): 0.716 mg/kg/day
- CN(N=O)c1ccc(/C=C/c2ccnc3ccccc23)cc1: 0.699 mg/kg/day
- Cc1ccc2c(c1N)C(=O)c1ccccc1C2=O: 59.2 mg/kg/day
- CCC1(c2ccccc2)C(=O)N=C(O)NC1=O (stereo not given): 86 mg/kg/day
- ClC(Cl)Cl: 262 mg/kg/day
- S=[Se]: 8.01 mg/kg/day
- CN(C)c1ccc(C(=O)c2ccc(N(C)C)cc2)cc1: 5.64 mg/kg/day

Please look at the following molecule next.
Entry O=[N+]([O-])OCC(CO[N+](=O)[O-])O[N+](=O)[O-] , Potency reported as 183 mg/kg/day
